system: 695427-040-R-J1-PDC complex spheroids, viability percent T/C; assay: Anticancer human tumor 695427-040-R-J1-PDC patient-derived colon adenocarcinoma cell line growth inhibition [GQUAD]; conditions: second compound 0.1 µM; first compound 1 µM; active compounds read low
The label yes is reserved for viability, T/C strictly under 80%; no covers values equal to or above it.

Is it true that viability, T/C reported for C=CCn1c(=O)c2cnc(Nc3ccc(N4CCN(C)CC4)cc3)nc2n1-c1cccc(C(C)(C)O)n1 + Cc1[nH]c2ccc(F)cc2c1-c1nc2c3cccnc3c3ncccc3c2[nH]1 is less than 80%?
no

Next compound: COc1cccc2c1C(=O)c1c(O)c3c(c(O)c1C2=O)CC(O)(C(=O)CO)CC3OC1CC(N)C(O)C(C)O1 (stereo not given) + Cc1[nH]c2ccc(F)cc2c1-c1nc2c3cccnc3c3ncccc3c2[nH]1
yes

Next compound: COc1ncnc(C2CC2)c1-c1ncc2cnn(Cc3ccc(-c4nc(C(F)(F)F)cn4C(C)C)cc3)c2n1 + Cc1[nH]c2ccc(F)cc2c1-c1nc2c3cccnc3c3ncccc3c2[nH]1
no

Next compound: C=CCn1c(=O)c2cnc(Nc3ccc(N4CCN(C)CC4)cc3)nc2n1-c1cccc(C(C)(C)O)n1 + CN(C)c1ccc(Nc2c3ccc(NC(=O)CCN4CCCC4)cc3nc3cc(NC(=O)CCN4CCCC4)ccc23)cc1
yes

Next compound: CC1COCCN1c1cc(C2(S(C)(=N)=O)CC2)nc(-c2ccnc3[nH]ccc23)n1 (stereo not given) + CN(C)c1ccc(Nc2c3ccc(NC(=O)CCN4CCCC4)cc3nc3cc(NC(=O)CCN4CCCC4)ccc23)cc1
no

Next compound: Cc1cccc(N(C)C(=O)C2C(O)CCN2c2nc(C)cc(C(F)(F)F)c2C#N)c1 (stereo not given) + Cc1[nH]c2ccc(F)cc2c1-c1nc2c3cccnc3c3ncccc3c2[nH]1
yes

Next compound: C#Cc1c(F)ccc2cc(O)cc(-c3ncc4c(N5CC6CCC(C5)N6)nc(OCC56CCCN5CC(F)C6)nc4c3F)c12 (stereo not given) + Cc1cnc(CNC(=O)c2c(=O)c3ccc(N4CCCN(C)CC4)nc3n3c2sc2ccccc23)cn1
yes

Next compound: CCCS(=O)(=O)Nc1ccc(F)c(C(=O)c2c[nH]c3ncc(-c4ccc(Cl)cc4)cc23)c1F + CN(C)c1ccc(Nc2c3ccc(NC(=O)CCN4CCCC4)cc3nc3cc(NC(=O)CCN4CCCC4)ccc23)cc1
no

Next compound: COc1cc(C2c3cc4c(cc3C(OC3OC5COC(C)OC5C(O)C3O)C3COC(=O)C23)OCO4)cc(OC)c1O (stereo not given) + CN(C)c1ccc(Nc2c3ccc(NC(=O)CCN4CCCC4)cc3nc3cc(NC(=O)CCN4CCCC4)ccc23)cc1
no

Next compound: CC1COCCN1c1cc(-c2ccnn2C)c2ccnc(-c3ccn[nH]3)c2n1 (stereo not given) + CN(C)c1ccc(Nc2c3ccc(NC(=O)CCN4CCCC4)cc3nc3cc(NC(=O)CCN4CCCC4)ccc23)cc1
yes

* * *

system: 695427-040-R-J1-PDC complex spheroids, viability percent T/C; assay: Anticancer human tumor 695427-040-R-J1-PDC cell line growth inhibition [GQUAD]; settings: second compound 3.16 µM; first compound 3.16 µM; active compounds read low;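 note: spheroids exposed to compounds for seven days before readout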
reported-endpoint: viability, T/C (%)
Enter your answer as a number in %; do not include the unit.

Suppose we examine the compound O=c1[nH]cc(F)c(=O)[nH]1 + CN(C)c1ccc(Nc2c3ccc(NC(=O)CCN4CCCC4)cc3nc3cc(NC(=O)CCN4CCCC4)ccc23)cc1 ; what viability, T/C value has been reported?
90.5

Next compound: Nc1ccn(C2OC(CO)C(O)C2(F)F)c(=O)n1 (stereo not given) + Cc1[nH]c2ccc(F)cc2c1-c1nc2c3cccnc3c3ncccc3c2[nH]1
51.4

Next compound: COc1ccc([C@@H](O)c2cc(-c3ncnc4cc(N5CCOCC5)ccc34)c(F)cc2Cl)nn1 + CN(C)c1ccc(Nc2c3ccc(NC(=O)CCN4CCCC4)cc3nc3cc(NC(=O)CCN4CCCC4)ccc23)cc1
68.4

Next compound: CC(C)n1c(=O)n(C)c2cnc3cc(F)c(-c4ccc(OCCCN5CCCCC5)nc4)cc3c21 + Cc1[nH]c2ccc(F)cc2c1-c1nc2c3cccnc3c3ncccc3c2[nH]1
92.2

Next compound: CCCS(=O)(=O)Nc1ccc(F)c(C(=O)c2c[nH]c3ncc(-c4ccc(Cl)cc4)cc23)c1F + Cc1[nH]c2ccc(F)cc2c1-c1nc2c3cccnc3c3ncccc3c2[nH]1
56.5

Next compound: O=c1[nH]cc(F)c(=O)[nH]1 + Cc1[nH]c2ccc(F)cc2c1-c1nc2c3cccnc3c3ncccc3c2[nH]1
74.1

Next compound: Cc1cccc(N(C)C(=O)C2C(O)CCN2c2nc(C)cc(C(F)(F)F)c2C#N)c1 (stereo not given) + Cc1[nH]c2ccc(F)cc2c1-c1nc2c3cccnc3c3ncccc3c2[nH]1
95.6

Next compound: Cc1cccc(N(C)C(=O)C2C(O)CCN2c2nc(C)cc(C(F)(F)F)c2C#N)c1 (stereo not given) + Cc1cnc(CNC(=O)c2c(=O)c3ccc(N4CCCN(C)CC4)nc3n3c2sc2ccccc23)cn1
67.8

Next compound: C#Cc1c(F)ccc2cc(O)cc(-c3ncc4c(N5CC6CCC(C5)N6)nc(OCC56CCCN5CC(F)C6)nc4c3F)c12 (stereo not given) + Cc1[nH]c2ccc(F)cc2c1-c1nc2c3cccnc3c3ncccc3c2[nH]1
1.77

Next compound: C=CC(=O)N1CCN(c2nc(=O)n(-c3c(C)ccnc3C(C)C)c3nc(-c4c(O)cccc4F)c(F)cc23)C(C)C1 (stereo not given) + Cc1cnc(CNC(=O)c2c(=O)c3ccc(N4CCCN(C)CC4)nc3n3c2sc2ccccc23)cn1
64.1

Next compound: COc1ccc([C@@H](O)c2cc(-c3ncnc4cc(N5CCOCC5)ccc34)c(F)cc2Cl)nn1 + Cc1cnc(CNC(=O)c2c(=O)c3ccc(N4CCCN(C)CC4)nc3n3c2sc2ccccc23)cn1
39.5

Next compound: CC(=O)O[C@H]1C(=O)[C@@]2(C)[C@H]([C@H](OC(=O)c3ccccc3)[C@]3(O)C[C@H](OC(=O)[C@H](O)[C@@H](NC(=O)c4ccccc4)c4ccccc4)C(C)=C1C3(C)C)[C@]1(OC(C)=O)CO[C@@H]1C[C@@H]2O + Cc1cnc(CNC(=O)c2c(=O)c3ccc(N4CCCN(C)CC4)nc3n3c2sc2ccccc23)cn1
60.4

Next compound: CC(C)n1c(=O)n(C)c2cnc3cc(F)c(-c4ccc(OCCCN5CCCCC5)nc4)cc3c21 + CN(C)c1ccc(Nc2c3ccc(NC(=O)CCN4CCCC4)cc3nc3cc(NC(=O)CCN4CCCC4)ccc23)cc1
95.5

Next compound: COc1ccc([C@@H](O)c2cc(-c3ncnc4cc(N5CCOCC5)ccc34)c(F)cc2Cl)nn1 + Cc1[nH]c2ccc(F)cc2c1-c1nc2c3cccnc3c3ncccc3c2[nH]1
66.6

Next compound: CC1COCCN1c1cc(C2(O)CC3CCC(C2)O3)c2cnn(-c3ccn[nH]3)c2n1 (stereo not given) + CN(C)c1ccc(Nc2c3ccc(NC(=O)CCN4CCCC4)cc3nc3cc(NC(=O)CCN4CCCC4)ccc23)cc1
46.1

Next compound: O=C(c1cc(Cc2n[nH]c(=O)c3ccccc23)ccc1F)N1CCN(C(=O)C2CC2)CC1 + Cc1cnc(CNC(=O)c2c(=O)c3ccc(N4CCCN(C)CC4)nc3n3c2sc2ccccc23)cn1
62.6

Next compound: CC(=O)O[C@H]1C(=O)[C@@]2(C)[C@H]([C@H](OC(=O)c3ccccc3)[C@]3(O)C[C@H](OC(=O)[C@H](O)[C@@H](NC(=O)c4ccccc4)c4ccccc4)C(C)=C1C3(C)C)[C@]1(OC(C)=O)CO[C@@H]1C[C@@H]2O + CN(C)c1ccc(Nc2c3ccc(NC(=O)CCN4CCCC4)cc3nc3cc(NC(=O)CCN4CCCC4)ccc23)cc1
77.4

Next compound: CC1COCCN1c1cc(C2(S(C)(=N)=O)CC2)nc(-c2ccnc3[nH]ccc23)n1 (stereo not given) + Cc1cnc(CNC(=O)c2c(=O)c3ccc(N4CCCN(C)CC4)nc3n3c2sc2ccccc23)cn1
51.5

Next compound: CC(C)(O)C1CCC(Nc2ccc3ncc(-c4cccc(C(F)(F)F)c4)n3n2)CC1 (stereo not given) + CN(C)c1ccc(Nc2c3ccc(NC(=O)CCN4CCCC4)cc3nc3cc(NC(=O)CCN4CCCC4)ccc23)cc1
13.2

Next compound: Nc1ccn(C2OC(CO)C(O)C2(F)F)c(=O)n1 (stereo not given) + CN(C)c1ccc(Nc2c3ccc(NC(=O)CCN4CCCC4)cc3nc3cc(NC(=O)CCN4CCCC4)ccc23)cc1
65.5
